Experiment: Plasma pharmacokinetics in biliary cancer patients (LC-MS/MS, non-compartmental)
Format: in vivo, human
Details: human, plasma, po, 200 mg, subject 1005; first dose 200 mg oral; read-out: Vz/F
Measured endpoint: Vd/F (L)
Expressed in L, but write only the number.

Looking for the measured Vd/F of `NC1(c2ccc(-c3nc4ccn5c(=O)[nH]nc5c4cc3-c3ccccc3)cc2)CCC1` , can you help?
2210

###

Experiment: Plasma pharmacokinetics in biliary cancer patients (LC-MS/MS, non-compartmental)
Format: in vivo, human
Details: human, plasma, po, 200 mg, subject 1001; first dose 200 mg oral; read-out: Tmax
Measured endpoint: Tmax (h)
Expressed in h, but write only the number.

Looking for the measured Tmax of `NC1(c2ccc(-c3nc4ccn5c(=O)[nH]nc5c4cc3-c3ccccc3)cc2)CCC1` , can you help?
4

###

Test: Plasma pharmacokinetics in biliary cancer patients (LC-MS/MS, non-compartmental)
Assay type: in vivo, human
Conditions: human, plasma, po, 200 mg, eight patients, first dose 200 mg oral; read-out: median terminal elimination half-life (converted)
Measured endpoint: half-life
A bare number is not enough; add the unit after it.

Looking for the measured half-life of NC1(c2ccc(-c3nc4ccn5c(=O)[nH]nc5c4cc3-c3ccccc3)cc2)CCC1 [MK-2206] , can you help?
58 h

###

Test: Plasma pharmacokinetics in biliary cancer patients (LC-MS/MS, non-compartmental)
Type: in vivo, human
Details: human, plasma, po, 200 mg, subject 1001; first dose 200 mg oral; read-out: AUC0–96
Description: Plasma samples were collected from all patients at Week 1 of Cycle 1 immediately prior to dose administration, and at 30 min, 1, 2, 3, 4, 6, 8, 24, 48, and 96 hours after dose administration. […] Plasma samples were also collected immediately prior to the oral intake of MK-2206 tablet(s) on days 8, 15 and 29 (i.e. Cycle 2, Day 1) so that trough pre-dose levels of MK-2206 could be determined in the following studies. […]
Measured endpoint: AUC(0-t)

Looking for the measured AUC(0-t) of `NC1(c2ccc(-c3nc4ccn5c(=O)[nH]nc5c4cc3-c3ccccc3)cc2)CCC1` , can you help?
3320 ng·h/mL

###

Assay: Plasma pharmacokinetics in biliary cancer patients (LC-MS/MS, non-compartmental)
Format: in vivo, human
Details: human, plasma, po, 200 mg, subject 1002; first dose 200 mg oral; read-out: AUC0–96
Measured endpoint: AUC(0-t) (ng·h/mL)
Expressed in ng·h/mL, but write only the number.

Looking for the measured AUC(0-t) of `NC1(c2ccc(-c3nc4ccn5c(=O)[nH]nc5c4cc3-c3ccccc3)cc2)CCC1` , can you help?
6850

###

Assay: Plasma pharmacokinetics in biliary cancer patients (LC-MS/MS, non-compartmental)
Format: in vivo, human
Details: human, plasma, po, 200 mg, subject 2008; first dose 200 mg oral
Measured endpoint: Cmax (ng/mL)
Expressed in ng/mL, but write only the number.

Looking for the measured Cmax of `NC1(c2ccc(-c3nc4ccn5c(=O)[nH]nc5c4cc3-c3ccccc3)cc2)CCC1` , can you help?
44.7

###

Assay: Plasma pharmacokinetics in biliary cancer patients (LC-MS/MS, non-compartmental)
Assay type: in vivo, human
Conditions: human, plasma, po, 200 mg, eight patients, first dose 200 mg oral; read-out: median time to peak observed plasma concentrations (Tmax)
Measured endpoint: Tmax
A bare number is not enough; add the unit after it.

Looking for the measured Tmax of NC1(c2ccc(-c3nc4ccn5c(=O)[nH]nc5c4cc3-c3ccccc3)cc2)CCC1 [MK-2206] , can you help?
6 h
